# measured target: T1, cynomolgus monkey VTCN1 expressed on 293 cells (cynomolgus monkey, UniProt A0A2K5U6P5 25-282)
# T1 construct: whole, on cells
# T1 sequence: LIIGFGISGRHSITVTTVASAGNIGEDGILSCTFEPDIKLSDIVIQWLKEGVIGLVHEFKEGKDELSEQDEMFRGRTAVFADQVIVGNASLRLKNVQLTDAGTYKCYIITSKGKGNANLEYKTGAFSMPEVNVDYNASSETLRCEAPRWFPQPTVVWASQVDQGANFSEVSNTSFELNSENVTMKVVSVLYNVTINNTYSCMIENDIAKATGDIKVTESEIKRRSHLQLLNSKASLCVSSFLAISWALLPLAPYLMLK
# assay method text: flow cytometry, antibody titration on 293-cynoVTCN1 cells
pEC50: −log10 of the molar value.
metric name: pEC50

INSERT INTO results (binder, experimental_result) VALUES
  ('14D6_60B5 (antibody, V domains shown, Fully human antibody) VH: QVQLVHSGAEVKRPGSSVKVSCKASGGTFSSYAISWVRQAPGQGLEWMGGIIPIFGIANYAQKFQGRVTIIADKSTRTAYMELSSLRSEDTAVYYCARGGPYFDYWGQGILVTVSS VL: EIVMTQSPATLSVSPGERATLSCRASQSVSSNLAWYQQKPGQAPRLLIYGASTRATGIPARFSGSGSGTEFTLTISSLQSEDFAVYYCQQYNKWPFTFGPGTKVDIK', 8.29),
  ('4C7_63A1 (antibody, V domains shown, Fully human antibody) VH: QVQLQESGPGLVKPSGTLSLTCAVSGGSISSSNWWSWVRQPPGKGLEAIGEIYHSGNTNYNPSLKSRVTISVDKSKNQFSLKLSSVTAADTAIYYCARDGYSSGWYWGYFDYWGQGTLVTVSS VL: EIVMTQSPATLSVSPGERATLSCRASQSVNSNLAWYQQKPGQAPWLLIYGASTRATGIPARFSGSGSGTEFTLTISSLQSEDFAVYYCQQYNHWPYTFGQGTKLEIK', 8.77),
  ('16H12_60B4 (antibody, V domains shown, Fully human antibody) VH: QVQVVQSGAEVKKPGSSVKVSCKASGDTFSNYAISWVRQAPGQGLEWMGGIIPIFGITNYAQKFQGRVTIIADKSTRTAYMELSSLRSEDTAVYYCSRGGPYFDYWGQGILVTVSS VL: EIVMTQSPATLSVSPGERATLSCRASQSVSSNLAWYQQKPGQAPRLLIYGASTRATGIPARFSGSGSGTEFTLTISSLQSEDFAVYYCQQYKKWPFTFGPGTKVDIK', 8.68),
  ('12B5_44B1 (antibody, V domains shown, Fully human antibody) VH: QVQLVQSGAEVKKPGSSMKVSCKASGDTFSSYAISWVRQAPGQGLEWMAGIIPVFGTAHNAQKFQGRVTITADKSTSTAYMELSSLRSEDTAVYYCTRGGPYFDYWGQGTLVTVSS VL: EIVMTQSPATLSVSPGERAALSCRASQSVSSNLAWYQQKPGQAPRLLIYGVSTRATGIPDRFNGSGSGTEFTLTISSLQSEDFGAYYCQQYKKWPFIFGPGTKLEIK', 8.05);
